Details: in DMF, 291.3 K
endpoint_name: solubility (mole fraction)
Answer with the value's number alone.

Provide only the value of recorded solubility (mole fraction) for `Cc1ccc(S(=O)(=O)[O-])cc1Cl.[Na+]`
0.0208

---

Conditions: in methanol, 327 K
endpoint_name: solubility (mole fraction)

Provide only the value of recorded solubility (mole fraction) for `Cc1ccc(S(=O)(=O)[O-])cc1Cl.[Na+]`
0.00637

---

Conditions: in water, 335.1 K
endpoint_name: solubility (mole fraction)
Answer with the value's number alone.

Provide only the value of recorded solubility (mole fraction) for `Cc1ccc(S(=O)(=O)[O-])cc1Cl.[Na+]`
0.0154

---

Settings: in methanol, 316.7 K
endpoint_name: solubility (mole fraction)
Answer with the value's number alone.

Provide only the value of recorded solubility (mole fraction) for `Cc1ccc(S(=O)(=O)[O-])cc1Cl.[Na+]`
0.00579

Where do these numbers come from? They come from BigSolDB 2.1.
